Assay: chemical genetic growth profiling, strain panel (AID 1159580);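 also: tested at 20 µM; growth read once vehicle control cultures reached saturation at 30 °C; 1 = growth at the plate median or of vehicle wells; lower values mean less growth of the strain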
Details: S. cerevisiae deletion strains, growth OD, locus YOR106W, strain vam3, hits give low values
Out of some 5,500 compounds screened, about 2,000 (36%) were called active. Another 18% or so got no clear call; they are omitted. The list shows a part of the results.
The entries below are paired with their reported normalized growth.
No unit in the answer, only the number.

{"smiles_repr": "COc1cccc2c1C(=O)c1c(O)c3c(c(O)c1C2=O)C[C@@](O)(C(C)=O)C[C@@H]3O[C@H]1C[C@H](N)[C@H](O)[C@H](C)O1", "measurement_type": "normalized growth", "val": 0.911}
{"smiles_repr": "CC(=O)NCc1c(I)c(NC(C)=O)c(I)c(C(=O)O)c1I", "measurement_type": "normalized growth", "val": 0.979}

Moving on to another molecule below.
For the molecule `CNC(=O)O/N=C\C(C)(C)SC` , report normalized growth. 0.996
